// provenance: patent US20160185837A1

System under test: T1, human glucagon receptor (GCGr) (Homo sapiens, UniProt P47871)
T1 construct: expressed in transfected cells; host or cells: HEK293s or CHO cells
T1 sequence (P47871 26-477): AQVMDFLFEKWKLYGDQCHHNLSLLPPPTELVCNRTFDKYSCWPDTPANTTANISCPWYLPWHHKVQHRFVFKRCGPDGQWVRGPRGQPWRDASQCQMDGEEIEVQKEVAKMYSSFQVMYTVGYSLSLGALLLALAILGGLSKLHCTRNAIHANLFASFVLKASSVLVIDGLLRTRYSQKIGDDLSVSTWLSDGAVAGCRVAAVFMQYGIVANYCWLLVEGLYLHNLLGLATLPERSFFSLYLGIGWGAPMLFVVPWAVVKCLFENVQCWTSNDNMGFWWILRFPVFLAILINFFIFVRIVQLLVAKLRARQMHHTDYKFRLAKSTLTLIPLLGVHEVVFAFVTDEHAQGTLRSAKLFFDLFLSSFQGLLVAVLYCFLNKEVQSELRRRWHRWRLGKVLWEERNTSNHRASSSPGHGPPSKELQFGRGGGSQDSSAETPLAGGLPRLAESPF
Assay procedure: BSA-cAMP assay, cells expressing human glucagon receptor
Type: cell-based
Run parameters: Batch 1, read-out: hGCGr cAMP activity EC50
Observation type: pEC50
Please treat pEC50 as minus the base-10 logarithm of the molar concentration.

Consider the worked cases shown below.
IP351 (protein) YSEGTFISDYSIAMDKIHQQDFVNWLLAQKPSSGAPPPSGGGGSGGGGSGGGGSGGGGSACPPC
6.89
IP301 (protein) YSEGTFTSDVSSYLEREAIDEFIAWLLKGGAAAGGSGSTASSGSGSATGGGGAATHTCPPC
4.92

Entry IP364 (protein) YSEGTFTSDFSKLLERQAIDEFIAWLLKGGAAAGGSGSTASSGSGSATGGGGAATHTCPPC , pEC50 reported as 6.21

Entry IP310 (protein) YSEGTFTSDVSSYMERQAIDEFIAWLLKGKAAAGGSGSTASSGSGSATGGGGAATHTCPPC , pEC50 reported as 5.43
